Provenance of the data: ChEMBL document CHEMBL3611989

# Test system: Staphylococcus aureus
# experiment: Antimicrobial activity against methicillin-resistant Staphylococcus aureus USA100 assessed as reduction in bacterial growth incubated for 18 to 20 hrs at 37 degC by broth microdilution method
# Assay type: functional
Quick rule for you: MIC under 8 µM gets Yes, anything else gets No.

compound=[C-]#[N+]c1ccc(C)cc1-c1ccc(C(F)(F)F)cc1 assignedlabel=No
compound=[C-]#[N+]c1ccccc1/C=C/c1cccc(F)c1 assignedlabel=No
compound=[C-]#[N+]c1ccccc1-c1ccccc1 assignedlabel=No
compound=Nc1ccccc1CCc1ccccc1 assignedlabel=No
compound=[C-]#[N+]c1ccccc1/C=C/c1ccccn1 assignedlabel=No
compound=[C-]#[N+]c1ccc(/C=C/c2cccnc2)cc1 assignedlabel=No
compound=[C-]#[N+]c1cccc(/C=C/c2ccccc2)c1 assignedlabel=No
compound=[C-]#[N+]c1cccc(/C=C/c2cccnc2)c1 assignedlabel=No
compound=[C-]#[N+]c1ccccc1/C=C/c1ccccc1 assignedlabel=Yes
compound=[C-]#[N+]c1ccccc1/C=C/c1ccccc1C(F)(F)F assignedlabel=No
compound=CC/C(=C\c1ccccc1)c1ccccc1 assignedlabel=No
compound="CC(=O)NC[C@H]1CN(c2ccc(N3CCOCC3)c(F)c2)C(=O)O1 [LINEZOLID]" assignedlabel=Yes
compound=[C-]#[N+]c1ccc(C)cc1-c1ccc(C(C)(C)C)cc1 assignedlabel=No
compound=[C-]#[N+]c1ccccc1C=C1CCCCC1 assignedlabel=No
compound=[C-]#[N+]c1ccccc1/C=C/c1ccc([N+](=O)[O-])cc1 assignedlabel=Yes
compound=[C-]#[N+]c1ccccc1/C=C/c1cccnc1 assignedlabel=No
compound=[C-]#[N+]c1ccccc1/C=C(\CC)c1ccc(F)cc1 assignedlabel=No
compound=N#Cc1ccccc1/C=C/c1ccccc1 assignedlabel=No
compound=[C-]#[N+]c1ccccc1/C=C/c1cccc(C(F)(F)F)c1 assignedlabel=Yes
compound=[C-]#[N+]c1ccccc1/C=C(\CC)c1cccc(C(F)(F)F)c1 assignedlabel=Yes
compound=[C-]#[N+]c1cccc(/C=C/c2ccccn2)c1 assignedlabel=No
compound=[C-]#[N+]c1ccccc1/C=C/c1ccc(C(F)(F)F)cc1 assignedlabel=Yes
compound="CN[C@H](CC(C)C)C(=O)N[C@H]1C(=O)N[C@@H](CC(N)=O)C(=O)N[C@H]2C(=O)N[C@H]3C(=O)N[C@H](C(=O)N[C@H](C(=O)O)c4cc(O)cc(O)c4-c4cc3ccc4O)[C@H](O)c3ccc(c(Cl)c3)Oc3cc2cc(c3O[C@@H]2O[C@H](CO)[C@@H](O)[C@H](O)[C@H]2O[C@H]2C[C@](C)(N)[C@H](O)[C@H](C)O2)Oc2ccc(cc2Cl)[C@H]1O [VANCOMYCIN]" assignedlabel=Yes

---

# Test system: Staphylococcus aureus
# experiment: Antimicrobial activity against vancomycin-resistant Staphylococcus aureus VRS2 assessed as reduction in bacterial growth incubated for 18 to 20 hrs at 37 degC by broth microdilution method
# Assay type: functional
The label Met is reserved for MIC strictly under 30 µM; Not met covers values equal to or above it.

molecule=[C-]#[N+]c1ccccc1/C=C(\CC)c1ccc(F)cc1 assignedlabel="Not met"
molecule=[C-]#[N+]c1ccc(/C=C/c2cccnc2)cc1 assignedlabel=Met
molecule=[C-]#[N+]c1ccccc1/C=C(\CCC)c1ccccc1 assignedlabel="Not met"
molecule="CC(=O)NC[C@H]1CN(c2ccc(N3CCOCC3)c(F)c2)C(=O)O1 [LINEZOLID]" assignedlabel=Met
molecule=[C-]#[N+]c1cccc(/C=C/c2ccccc2)c1 assignedlabel="Not met"
molecule=[C-]#[N+]c1ccccc1/C=C(\CCCC)c1ccccc1 assignedlabel="Not met"
molecule=[C-]#[N+]c1ccccc1/C=C/c1ccncc1 assignedlabel="Not met"
molecule=[C-]#[N+]c1ccccc1/C=C(\CC)c1ccccc1 assignedlabel="Not met"
molecule="CN[C@H](CC(C)C)C(=O)N[C@H]1C(=O)N[C@@H](CC(N)=O)C(=O)N[C@H]2C(=O)N[C@H]3C(=O)N[C@H](C(=O)N[C@H](C(=O)O)c4cc(O)cc(O)c4-c4cc3ccc4O)[C@H](O)c3ccc(c(Cl)c3)Oc3cc2cc(c3O[C@@H]2O[C@H](CO)[C@@H](O)[C@H](O)[C@H]2O[C@H]2C[C@](C)(N)[C@H](O)[C@H](C)O2)Oc2ccc(cc2Cl)[C@H]1O [VANCOMYCIN]" assignedlabel="Not met"
molecule=[C-]#[N+]c1ccccc1/C=C/c1ccccc1C(F)(F)F assignedlabel="Not met"
molecule=[C-]#[N+]c1ccc(/C=C/c2ccncc2)cc1 assignedlabel=Met
molecule=[C-]#[N+]c1ccc(/C=C/c2ccccn2)cc1 assignedlabel="Not met"
molecule=Nc1ccccc1CCc1ccccc1 assignedlabel="Not met"
molecule=[C-]#[N+]c1ccccc1C=C1CCCCC1 assignedlabel="Not met"
molecule=[C-]#[N+]c1ccccc1/C=C(\CC)c1ccc(C(F)(F)F)cc1 assignedlabel=Met
molecule=[C-]#[N+]c1ccccc1/C=C(\CC)c1ccc(OC)cc1 assignedlabel=Met
molecule=[C-]#[N+]c1ccccc1CP(=O)(OCC)OCC assignedlabel="Not met"
molecule=[C-]#[N+]c1ccccc1/C=C/c1ccc(C)cc1 assignedlabel="Not met"
molecule=[C-]#[N+]c1ccccc1/C=C/c1ccc(C(F)(F)F)cc1 assignedlabel=Met
molecule=[C-]#[N+]c1ccc(/C=C/c2ccccc2)cc1 assignedlabel="Not met"
molecule=[C-]#[N+]c1ccccc1/C=C/c1cccc(OC)c1 assignedlabel="Not met"
molecule=[C-]#[N+]c1ccccc1/C=C/c1cccc(C(F)(F)F)c1 assignedlabel=Met
molecule=[C-]#[N+]c1ccccc1-c1ccc2ccccc2c1 assignedlabel="Not met"
molecule=N#Cc1ccccc1/C=C/c1ccccc1 assignedlabel="Not met"
molecule=[C-]#[N+]c1ccc(C)cc1-c1ccc(C(C)(C)C)cc1 assignedlabel="Not met"
molecule=[C-]#[N+]c1ccccc1/C=C/c1ccccc1OC assignedlabel=Met
molecule=[C-]#[N+]c1cccc(/C=C/c2ccncc2)c1 assignedlabel="Not met"
molecule=[C-]#[N+]c1ccccc1/C=C(\CC)c1cccc(C(F)(F)F)c1 assignedlabel=Met
molecule=[C-]#[N+]c1ccccc1CCc1ccccc1 assignedlabel="Not met"
molecule=[C-]#[N+]c1ccc(C)cc1-c1ccc(C(F)(F)F)cc1 assignedlabel="Not met"
molecule=[C-]#[N+]c1ccccc1/C=C/c1cccnc1 assignedlabel="Not met"
molecule=[C-]#[N+]c1ccccc1/C=C/c1ccc([N+](=O)[O-])cc1 assignedlabel=Met
molecule=[C-]#[N+]c1cccc(/C=C/c2cccnc2)c1 assignedlabel="Not met"
molecule=[C-]#[N+]c1ccccc1/C=C/c1ccccc1 assignedlabel="Not met"
molecule=[C-]#[N+]c1ccccc1C=C(c1ccccc1)c1ccccc1 assignedlabel=Met
molecule=[C-]#[N+]c1ccccc1/C=C/c1ccccn1 assignedlabel="Not met"
molecule=[C-]#[N+]c1ccccc1/C=C/c1cccc(F)c1 assignedlabel="Not met"
molecule=[C-]#[N+]c1ccccc1/C=C(\C)c1ccccc1 assignedlabel="Not met"
molecule=CC/C(=C\c1ccccc1)c1ccccc1 assignedlabel="Not met"
molecule=[C-]#[N+]c1ccccc1/C=C/c1ccc(F)cc1 assignedlabel="Not met"
molecule=[C-]#[N+]c1ccccc1-c1ccccc1 assignedlabel="Not met"
molecule=[C-]#[N+]c1ccccc1/C=C/c1ccc(OC)cc1 assignedlabel="Not met"
molecule=[C-]#[N+]c1ccccc1/C=C/c1ccccc1F assignedlabel="Not met"
molecule=[C-]#[N+]c1ccccc1/C=C/c1ccc(CCCC)cc1 assignedlabel="Not met"
molecule=[C-]#[N+]c1cccc(/C=C/c2ccccn2)c1 assignedlabel="Not met"
